Origin of the recorded values: ChEMBL document CHEMBL1140123

# EXPERIMENT_SUMMARY: Toxicity in mouse 3T3L1 cells
# Assay type: cell-based
# MEASUREMENT_CONDITIONS: 3T3-L1 cells
READOUT_TYPE: IC50 (µM)
Give bare numbers, in µM.

State, in one line, measured IC50 of "CCCCCC[C@@H]1C(=O)N[C@H]([C@H](O)C(C)C)C(=O)N[C@H]([C@@H](C)CC)C(=O)N(C)[C@@H](C)C(=O)N(C)[C@@H](CC(C)C)C(=O)N[C@@H](CC(C)C)C(=O)N(C)[C@@H](C)C(=O)N1C" 0.066

---

# EXPERIMENT_SUMMARY: Toxicity in mouse 3T3L1 cells
# Assay type: cell-based
# MEASUREMENT_CONDITIONS: 3T3-L1 cells
READOUT_TYPE: IC50

Illustrative cases are given below, each with its answer.
CCCCCC[C@H]1NC(=O)[C@@H]([C@H](O)C(C)C)NC(=O)[C@@H](C)N(C)C(=O)[C@H](C)N(C)C(=O)[C@H](CC(C)C)NC(=O)[C@H](CC(C)C)N(C)C(=O)[C@H](C)N(C)C1=O	> 130 µM
CC[C@H](C)[C@H]1NC(=O)[C@@H]([C@H](O)C(C)C)NC(=O)[C@@H](C)N(C)C(=O)[C@H](C)N(C)C(=O)[C@H](CC(C)C)NC(=O)[C@H](C)N(C)C(=O)[C@H](C)N(C)C1=O	> 29 µM
CC(C)C[C@@H]1NC(=O)[C@H](CC(C)C)N(C)C(=O)[C@H](C)N(C)C(=O)[C@@H](C)NC(=O)[C@@H]([C@H](O)C(C)C)NC(=O)[C@@H](C)N(C)C(=O)[C@H](C)N(C)C1=O	> 130 µM
CC[C@H](C)[C@H]1NC(=O)[C@@H](C)NC(=O)[C@@H](C)N(C)C(=O)[C@H](C)N(C)C(=O)[C@H](CC(C)C)NC(=O)[C@H](CC(C)C)N(C)C(=O)[C@H](C)N(C)C1=O	> 130 µM
CCCCCC[C@H]1C(=O)N(C)[C@H](C)C(=O)N[C@H]([C@H](O)C(C)C)C(=O)N[C@H]([C@@H](C)CC)C(=O)N(C)[C@@H](C)C(=O)N(C)[C@@H](CC(C)C)C(=O)N[C@@H](CC(C)C)C(=O)N1C	0.96 µM

Batch request: IC50 per item, same order as input.
1. CC[C@H](C)[C@H]1NC(=O)[C@@H]([C@H](O)C(C)C)NC(=O)[C@@H](C)N(C)C(=O)[C@H](C)N(C)C(=O)[C@H](C)NC(=O)[C@H](CC(C)C)N(C)C(=O)[C@H](C)N(C)C1=O
2. CCCCCC[C@H]1C(=O)N[C@@H](CC(C)C)C(=O)N(C)[C@@H](C)C(=O)N(C)[C@H](C)C(=O)N[C@H]([C@H](O)C(C)C)C(=O)N[C@H]([C@@H](C)CC)C(=O)N(C)[C@@H](C)C(=O)N1C
3. CC[C@H](C)[C@H]1NC(=O)[C@@H](COCc2ccccc2)NC(=O)[C@H](C)N(C)C(=O)[C@H](C)N(C)C(=O)[C@H](CC(C)C)NC(=O)[C@H](CC(C)C)N(C)C(=O)[C@H](C)N(C)C1=O
4. CCCCCC[C@@H]1NC(=O)[C@H](CC(C)C)N(C)C(=O)[C@H](C)N(C)C(=O)[C@@H]([C@@H](C)CC)NC(=O)[C@@H]([C@H](O)C(C)C)NC(=O)[C@@H](C)N(C)C(=O)[C@H](C)N(C)C1=O

> 130 µM
2.1 µM
89 µM
> 130 µM
